# Test system: MvaT
# testProtocol: PBM 8-mer E-score (mean of HK and ME arrays) (E-score (dimensionless, -0.5 to 0.5)); higher = stronger relative binding preference
The full ranking holds about 33,000 sequences; the median of “E-score (dimensionless, -0.5 to 0.5)” is about -0.058, and the highest 2% start at about 0.35. For the sample, the highest values were picked, then their nearest neighbours and some sequences at random.
experimentalEndpoint: PBM 8-mer E-score
Write no unit; give the number alone.

Please review the following examples before continuing.
# chainSequence, PBM 8-mer E-score
data = [
    ("AATGTTAG", 0.209),
    ("GCTGCCAA", -0.0483),
    ("GGGGCCAA", -0.225),
    ("TAAAAATA", 0.3),
    ("CTAGGCCA", -0.211),
    ("CGCTTTAA", 0.0497),
    ("ACTGTTAT", 0.306),
    ("TAATATCA", 0.421),
]

[in] Dear colleague, I am looking for the recorded PBM 8-mer E-score of the following sequence: "GAGCACGA"
[out] -0.273

[in] Value lookup for PBM 8-mer E-score; key = "AAATATGG"
[out] 0.278

[in] Which PBM 8-mer E-score is listed for "GGGAACAC" ?
[out] -0.198

[in] Quick one: PBM 8-mer E-score of "AGCCCTAT" ?
[out] -0.14

[in] Given the entry "AATGTTAA" , report its measured PBM 8-mer E-score.
[out] 0.387

[in] Would you kindly share the measured PBM 8-mer E-score for "AAATATTA" ?
[out] 0.438

[in] What value of measured PBM 8-mer E-score is listed for "CCTACAGC" ?
[out] -0.247

[in] Report PBM 8-mer E-score for "GAGGACTC" please.
[out] -0.279
